Provenance of the data: paper PMC12415521

- ASSAY_SYSTEM: T1, CD2 domain of cpSRP43
- T1 chain: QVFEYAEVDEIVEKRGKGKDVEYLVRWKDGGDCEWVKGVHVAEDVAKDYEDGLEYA
- ASSAY_EXPLANATION: ITC
MEASURED_PROPERTY: Kd (nM)
Respond numerically; units are nM and should not be typed.

Query :: Fill blank: measured Kd of the binder APPGTARRKRKADS [54-peptide] is ____.
Result :: 1420
